- Target Or System: T1, human FcRn/b2M (human, UniProt P61769 21-119, biotinylated)
- T1 construct: bought recombinant biotinylated protein (ACRO FCM-H82W4 or Immunitrack ITF01); also called hFcRn; hFcRn/hb2M
- Assay Procedure: SPR pH 6.0
Measured Attribute: koff (s⁻¹)

A = T026301109 (VHH, name in Kabat numbering, tagless) VHH: EVQLVESGGGVVQPGGSLRLSCAASTFTFSSYDMYWVRQAPGKGLEWVSAISQGGGSTDYADSVKGRFTISRDNSKNTLYLQMNSLRPEDTALYYCAADTLYTSLTWYSYWGQGTLVTVSS
B = T026301074 (VHH, name in Kabat numbering, tagless) VHH: EVQLVESGGGVVQPGGSLRLSCAASTFTFSEYAMYWVRQAPGKGLEWVSAISSGGGSTDYADSVKGRFTISRDNSKNTLYLQMNSLRPEDTALYYCAADTLYTDLTWYSYWGQGTLVTVSS
Ask: Form: Entry with minimum koff (choose one): A / B Could you answer with the label of the item you picked?
Result: A
